Assay: Pharmacokinetics (half-life, AUC, bioavailability)
Parameters: species or system rats, hamsters and dogs
Details: rat, hamster, dog, in vivo; rats, hamsters and dogs; read-out: biological half-life
quantity_name: half-life

Read off the recorded half-life for COc1ccc(C(=O)N[C@H](C(=O)N2CCC[C@H]2C(=O)N[C@H](C(=O)C(F)(F)F)C(C)C)C(C)C)cc1 0.82 to 2 h

* * *

Experiment: Pharmacokinetics (half-life, AUC, bioavailability)
Parameters: species or system rats, hamsters and dogs
Conditions: rat, hamster, dog, in vivo; intravenous; read-out: intravenous AUC
quantity_name: AUC

Supply reported AUC belonging to this compound: COc1ccc(C(=O)N[C@H](C(=O)N2CCC[C@H]2C(=O)N[C@H](C(=O)C(F)(F)F)C(C)C)C(C)C)cc1 1360 to 3180 ng·h/mL

* * *

Assay: Pharmacokinetics (half-life, AUC, bioavailability)
Set-up: species or system rats, hamsters and dogs
Conditions: rat, hamster, dog, in vivo; oral; read-out: oral bioavailability (AUC)
quantity_name: AUC

Supply measured AUC of COc1ccc(C(=O)N[C@H](C(=O)N2CCC[C@H]2C(=O)N[C@H](C(=O)C(F)(F)F)C(C)C)C(C)C)cc1 [compound II] in your reply. 355 to 1400 ng·h/mL
